B1: H2-Kb / Ed46 (parent complex)
chain 1: AQSVTQPDARVTVSEGASLQLRCKYSYFGTPYLFWYVQYPRQGLQLLLKYYPGDPVVQGVNGFEAEFSKSNSSFHLRKASVHWSDWAVYFCAVGRTGGYKVVFGSGTRLLVSP
chain 2: DSGVVQSPRHIIKEKGGRSVLTCIPISGHSNVVWYQQTLGKELKFLIQHYEKVERDKGFLPSRFSVQQFDDYHSEMNMSALELEDSAMYFCASSPRHSDYTFGSGTRLLVI
chain 3: not shown
chain 4: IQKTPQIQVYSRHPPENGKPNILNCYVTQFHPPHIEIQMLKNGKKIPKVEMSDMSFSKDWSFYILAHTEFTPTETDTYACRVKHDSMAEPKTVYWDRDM
chain 5: SIINFEKL

Variants of: B1
experimental protocol: % of reporter cells activated (NFAT-GFP), raw; also: test concentration or dose not given here
Binning rule for recorded ratio to parent: low (below 0.2), mid (0.2 to below 1), high (1 or more)

The following variants have reported results that may help.
chain 5 I2D	high
chain 5 F5W	high
chain 5 E6A	mid
chain 5 N4G	low
chain 5 K7F	low
chain 5 K7T	mid
chain 5 S1N	low
chain 5 L8K	high

Class? Entry: chain 5 L8Y high

Class? Entry: chain 5 I3D low

Class? Entry: chain 5 L8N mid

Class? Entry: chain 5 N4M low

Class? Entry: chain 5 I2K high

Class? Entry: chain 5 L8G mid

Class? Entry: chain 5 E6M mid
